# Test system: A498
# procedure summary: NCI tumour cell line growth inhibition, 48 h
Calls of active or inactive are those of the source. Rule as the data show it: active = GI50 up to about 1.1 µM and inactive = higher. Where a SMILES comes first, the peptide text is derived from it. [ ]: non-standard residue; d: D form. The star is where a group is joined. ξ: configuration not given here. X4 = COc1ccc(C(N*)c2ccc(OC)cc2)cc1; NMeF = CN[C@@H](Cc1ccccc1)C(=O)O; NMeD = CN[C@@H](CC(=O)O)C(=O)O; NMeV = CN[C@H](C(=O)O)C(C)C; ξNMeV = CNC(C(=O)O)C(C)C; Boc = CC(C)(C)OC(=O)*; ξNMeA = CNC(C)C(=O)O; ξV = CC(C)C(N)C(=O)O
readout label: GI50

molecule	readout label	result
NC(CCC(=O)O)C(=O)NC(Cc1ccc(N(CCCl)CCCl)cc1)C(=O)O (stereo not drawn)	GI50	> 100 µM (inactive)
CC1(C)C2CC3C4CC5(Nc6ccccc6C5N41)[C@]3(C)CC2=O (stereo partly drawn)	GI50	> 50 µM (inactive)
CC1(CCC2C=CCC2)CCCNC1=S (stereo not drawn)	GI50	> 10 µM (inactive)
CN(C)c1ccc(C(c2ccc(Cl)cc2)c2ccc(N(C)C)cc2)cc1	GI50	> 100 µM (inactive)
COc1ccc(C(NC(=O)C[C@@H](C(=O)N(C)C(C)C(=O)O)N(C)C(=O)[C@@H]2CCCN2C(=O)[C@H](C(C)C)N(C)C(=O)C(C(C)C)N(C)C(=O)[C@H](Cc2ccccc2)N(C)C(=O)C(NC(=O)OC(C)(C)C)C(C)C)c2ccc(OC)cc2)cc1 (stereo partly drawn) (Boc-[ξV][NMeF][ξNMeV][NMeV]P[NMeD](X4)[ξNMeA]-OH)	GI50	> 37.5 µM (inactive)
Cc1ccc(/C=N/NS(=O)(=O)c2ccccc2)c(C)c1	GI50	> 100 µM (inactive)
COc1cccc(-c2nc3c(C(=O)NCCN(C)C)cccc3[nH]2)c1	GI50	16.3 µM (inactive)
O=NN(CCF)C(=O)NC1CC2CCC1C2 (stereo not drawn)	GI50	> 100 µM (inactive)

* * *

# System: BT-549
# procedure summary: NCI tumour cell line growth inhibition, 48 h
Active and inactive are the calls of the source. No stated cut-off is given here; in the data, active = GI50 up to about 1.1 µM and inactive = higher. Square brackets hold non-standard residues; d marks the D form. Peptide text beside a SMILES is read from it. Ac5c = NC1(C(=O)O)CCCC1
The entries below come with measured GI50 values attached.
readout label: GI50

molecule	result
CCCCCCCCCCCCCCCC(=O)OCC1OC(OC)C(NC(=O)N(CCCl)N=O)C(O)C1O (configuration not stated)	28.3 µM (inactive)
c1ccc2c(c1)[nH]c1c2cc[n+]2cc3c(cc12)CCCC3	2.76 µM (inactive)
CCOC(=O)c1sc2nc(SC)nc3c2c1NCN3C	35.7 µM (inactive)
C=CCN1C(=O)/C(=C/c2ccco2)N=C1SC1OC(COC(C)=O)C(OC(C)=O)C(OC(C)=O)C1OC(C)=O (configuration not stated)	> 100 µM (inactive)
NCC(=O)NC1(C(=O)O)CCCC1 (H-Gly-[Ac5c]-OH)	> 100 µM (inactive)
COC(=O)c1ccc(NCc2cc(O)ccc2O)cc1O	3.44 µM (inactive)
CNC(=O)c1nnn(Cc2ccccc2)c1S	> 100 µM (inactive)
Cc1ccc2c(C(=O)c3c(C)n(CCN4CCOCC4)c4ccccc34)cccc2c1	14 µM (inactive)
CC(C)(C)C(=O)C(C(c1ccccc1)N1CCOCC1)N1CCOCC1 (configuration not stated)	> 100 µM (inactive)
CC(=O)/C(=C\NC(=S)Nc1ccc(S(N)(=O)=O)cc1)C(=O)Nc1ccccc1C	33.9 µM (inactive)
CCOC(=O)c1cc([N+](=O)[O-])c(Sc2ncnc3nc[nH]c23)c([N+](=O)[O-])c1	6.32 µM (inactive)
C=CCSc1nc2ccccc2c(=O)n1Cc1ccco1	> 100 µM (inactive)
Cc1nc2cc(/N=N/c3c(C)noc3C)ccc2[nH]1	22.2 µM (inactive)
O=C(ON=c1c2ccccc2ccc2ccccc12)c1cc([N+](=O)[O-])cc([N+](=O)[O-])c1	54.8 µM (inactive)
COc1cc(C2c3cc4c(cc3[C@@H](Nc3ccc(F)cc3)C3COC(=O)[C@H]23)OCO4)cc(OC)c1O (some centres not stated)	2.61 µM (inactive)
CC1=C(C#N)c2nc3ccccc3n2C(=O)C1(C)CCO (configuration not stated)	> 100 µM (inactive)
CC[C@@]12CCC(=S)N(CCSc3ccccc3)[C@@H]1c1c(n(S(=O)(=O)c3ccc(OC)cc3)c3ccccc13)CC2	48.1 µM (inactive)
CCCC(C(=O)Nc1cccc2nc[nH]c12)C(=O)OCC (configuration not stated)	> 100 µM (inactive)
CN(C)/C=C/c1nnnn1-c1ccc(I)cc1	22.8 µM (inactive)
O=C(NCCc1ccccc1)[C@H]1CCCC[C@@H]1CCO	> 100 µM (inactive)
COc1ccc2c(c1)CCc1c-2[nH]c2ccc(OC)cc12	> 100 µM (inactive)
O=c1oc2ccc3ccccc3c2cc1-c1nnc(-c2ccc([N+](=O)[O-])cc2)[nH]1	21.3 µM (inactive)
